// protein stability index lookup, one value per entry
B1: TRIM55 (parent)
chain: YKSFSKEQQTMDNLEKQLICPICL

variants of: B1; test: protein stability index of a GFP-peptide fusion (GPS, HEK-293T) (PSI 1-6); higher = more stable; settings: c terminus: a fixed tail appended;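 further: lentivirally expressed fusions sorted by FACS into six bins by GFP to DsRed ratio, PSI derived from sequencing read proportions per bin multiplied by bin number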
Simply state the number, no unit and no words.

Illustrative cases are given below, each with its answer.
VARIANT_ANNOTATION | protein stability index
Y1H | 3.12
C20A | 1.54
S5V | 1.99
T10D | 2.08
N13W | 2.05
Y1G | 2.35
C20R | 2.11
Q9Y | 2.7

Problem: Can you share its protein stability index? I mean this variant: N13G
Solution: 2.35

Problem: Can you share its protein stability index? I mean this variant: P21A
Solution: 1.66

Problem: Can you share its protein stability index? I mean this variant: C20S
Solution: 2.4
